Test system: Mycobacterium tuberculosis
test: Antitubercular activity against dormant stage of Mycobacterium tuberculosis H37Ra ATCC 25177 after 12 days by XRMA
Format: functional, organism-based
condition.info: H37Ra ATCC 25177, 288 h
Numbered stars: 1 amine (or outer) side, 2 acyl side, 3 side chain; on linkers, the order of the positions; unused ones are H or OH. Square brackets hold non-standard residues; d marks the D form. Peptide text beside a SMILES is read from it. Pro(N-(CH2)3Gua,cis-4-NH-) = N=C(N)NCCCN1C[C@@H](N[*:1])C[C@H]1C(=O)[*:2]; Pro(cis-4-guanidino) = NC(N)=N[C@@H]1CN[C@H](C(=O)O)C1; X1 = NCCCN1C[C@@H](N[*:1])C[C@H]1C(=O)[*:2]; Ethylenediamine = C(CN[*:2])N[*:1]; βAla = NCCC(=O)O
We label by threshold. Values of IC50 strictly beneath 1000 nM are true. Values of 1000 nM and up are false.

Some solved entries appear below for comparison.
{"compound": "CC(=O)N[C@@H](Cc1ccccc1)C(=O)NCC(=O)N1C[C@@H](NC(=N)N)C[C@H]1C(=O)N[C@@H](CCCCN)C(=O)N[C@@H](CCCCN)C(=O)N[C@@H](CCCNC(=N)N)C(=O)N1C[C@@H](NC(=N)N)C[C@H]1C(=O)N[C@@H](CCC(N)=O)C(=O)N[C@@H](CCCNC(=N)N)C(=O)N[C@@H](CCCNC(=N)N)C(=O)N1C[C@@H](NC(=N)N)C[C@H]1C(=O)NCCC(N)=O (Ac-FG[Pro(cis-4-guanidino)]KKR[Pro(cis-4-guanidino)]QRR[Pro(cis-4-guanidino)][βAla]-NH2)", "label.value": "true"}
{"compound": "CC(=O)N[C@@H](Cc1ccccc1)C(=O)NCC(=O)N[C@H]1C[C@@H](C(=O)N[C@@H](CCCCN)C(=O)N[C@@H](CCCCN)C(=O)N[C@@H](CCCNC(=N)N)C(=O)N[C@H]2C[C@@H](C(=O)N[C@@H](CCC(N)=O)C(=O)N[C@H]3C[C@@H](C(=O)N[C@@H](CCCNC(=N)N)C(=O)N[C@H]4C[C@@H](C(=O)NCCN)N(CCCN)C4)N(CCCN)C3)N(CCCN)C2)N(CCCN)C1 (Ac-FG[X1]KKR[X1]Q[X1]R[X1]-Ethylenediamine)", "label.value": "false"}
{"compound": "CC(=O)N[C@@H](Cc1ccccc1)C(=O)NCC(=O)N[C@@H](CCCNC(=N)N)C(=O)N[C@@H](CCCCN)C(=O)N[C@@H](CCCCN)C(=O)N[C@H]1C[C@@H](C(=O)N[C@@H](CCCNC(=N)N)C(=O)N[C@@H](CCC(N)=O)C(=O)N[C@@H](CCCNC(=N)N)C(=O)N[C@@H](CCCNC(=N)N)C(=O)N[C@@H](CCCNC(=N)N)C(=O)NCCC(N)=O)N(CCCNC(=N)N)C1 (Ac-FGRKK[Pro(N-(CH2)3Gua,cis-4-NH-)]RQRRR[βAla]-NH2)", "label.value": "false"}
{"compound": "CC(=O)N[C@@H](Cc1ccccc1)C(=O)NCC(=O)N[C@@H](CCCNC(=N)N)C(=O)N[C@@H](CCCCN)C(=O)N[C@@H](CCCCN)C(=O)N[C@@H](CCCNC(=N)N)C(=O)N[C@@H](CCCNC(=N)N)C(=O)N[C@@H](CCC(N)=O)C(=O)N[C@@H](CCCNC(=N)N)C(=O)N[C@@H](CCCNC(=N)N)C(=O)N[C@@H](CCCNC(=N)N)C(N)=O", "label.value": "false"}

Q. Criterion: IC50 strictly below 1000 nM. Is it met by CC(=O)N[C@@H](Cc1ccccc1)C(=O)NCC(=O)N[C@H]1C[C@@H](C(=O)N[C@@H](CCCCN)C(=O)N[C@@H](CCCCN)C(=O)N[C@@H](CCCNC(=N)N)C(=O)N[C@H]2C[C@@H](C(=O)N[C@@H](CCC(N)=O)C(=O)N[C@@H](CCCNC(=N)N)C(=O)N[C@@H](CCCNC(=N)N)C(=O)N[C@H]3C[C@@H](C(=O)NCCC(N)=O)N(CCCN)C3)N(CCCN)C2)N(CCCN)C1 (Ac-FG[X1]KKR[X1]QRR[X1][βAla]-NH2) ?
A. false

Q. For this compound, is IC50 lower than 1000 nM? CC(=O)N[C@@H](Cc1ccccc1)C(=O)NCC(=O)N[C@@H](CCCNC(=N)N)C(=O)N[C@@H](CCCCN)C(=O)N[C@@H](CCCCN)C(=O)N[C@@H](CCCNC(=N)N)C(=O)N[C@@H](CCCNC(=N)N)C(=O)N[C@@H](CCC(N)=O)C(=O)N[C@@H](CCCNC(=N)N)C(=O)N[C@@H](CCCNC(=N)N)C(=O)N1C[C@@H](NC(=N)N)C[C@H]1C(=O)NCCC(N)=O (Ac-FGRKKRRQRR[Pro(cis-4-guanidino)][βAla]-NH2)
A. true

Q. For this compound, is IC50 lower than 1000 nM? CC(=O)N[C@@H](Cc1ccccc1)C(=O)NCC(=O)N1C[C@@H](NC(=N)N)C[C@H]1C(=O)N[C@@H](CCCCN)C(=O)N[C@@H](CCCCN)C(=O)N[C@@H](CCCNC(=N)N)C(=O)N1C[C@@H](NC(=N)N)C[C@H]1C(=O)N[C@@H](CCC(N)=O)C(=O)N1C[C@@H](NC(=N)N)C[C@H]1C(=O)N[C@@H](CCCNC(=N)N)C(=O)N1C[C@@H](NC(=N)N)C[C@H]1C(=O)NCCC(N)=O (Ac-FG[Pro(cis-4-guanidino)]KKR[Pro(cis-4-guanidino)]Q[Pro(cis-4-guanidino)]R[Pro(cis-4-guanidino)][βAla]-NH2)
A. false
